From: the supplement of paper PMC10567573

Please provide measured protein stability index for the entries that follow.
B1: RSPH3 (parent)
chain: VDVQTELYLEEIADRIIEVDMECQ

variants of: B1; assay: protein stability index of a GFP-peptide fusion (GPS, HEK-293T) (PSI 1-6); higher = more stable; conditions: c terminus: a fixed tail appended;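 further: lentivirally expressed fusions sorted by FACS into six bins by GFP to DsRed ratio, PSI derived from sequencing read proportions per bin multiplied by bin number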

The examples below pair each entry with its known result.
# seq-text, protein stability index
data = [
    ("VDVQTELYLEPIADRIIEVDMECQ [E11P]", 2.98),
    ("VDVQTELYLEEIADRIIEVDMDCQ [E22D]", 2.77),
]

Required: protein stability index, one value per variant below.
1. VDVQTELYLEEIADRIIECDMECQ [V19C]
2. VDVQTELYLEEIADRIIEVDMEHQ [C23H]
3. VDVQTELYLEEIADRIICVDMECQ [E18C]
4. QDVQTELYLEEIADRIIEVDMECQ [V1Q]
5. VDVQTELYLEEIWDRIIEVDMECQ [A13W]
6. VDVQTELYQEEIADRIIEVDMECQ [L9Q]

Output line:
[1.89, 4.03, 2.48, 3.25, 1.65, 5.62]

Please look at the items below and tell me protein stability index for each one, in order.
1. VLVQTELYLEEIADRIIEVDMECQ [D2L]
2. VDVQTRLYLEEIADRIIEVDMECQ [E6R]
3. VDAQTELYLEEIADRIIEVDMECQ [V3A]
4. VDVQTELYAEEIADRIIEVDMECQ [L9A]
5. VDVQTELYLEEIADRIIEFDMECQ [V19F]

Output line:
[2.6, 2.52, 3.22, 4.01, 2.3]

Give measured protein stability index for every item shown.
1. VDVQTELYLEEIADRIIEVDMICQ [E22I]
2. VDVQTELYLEEQADRIIEVDMECQ [I12Q]

Output line:
2.81
4.37
